The reported numbers originate from PubChem BioAssay (NCI).

system: SK-MEL-5 melanoma; assay: NCI-60 one-dose screen, 48 h (100 = growth as untreated, 0 = no growth, -100 = all killed); conditions: 10 µM unless noted
Compounds without any hit were thinned out: in the full panel of roughly 83,000, 20% have a hit. Activity calls are given as the source filed them. How the source made its calls: active means growth percent below 10; inactive means the rest.
Entries annotated with measured growth

Below are worked cases with known answers.
CC[C@]12CN3CCc4c([nH]c5ccccc45)[C@@](C(=O)OC)(c4cc5c(cc4OC)N(C)[C@H]4[C@@](O)(C(=O)OC)[C@H](OC(C)=O)[C@]6(CC)C=CCN7CC[C@]54[C@@H]76)CC(C3)[C@H]1O2 (stereo partly drawn); -26.4% (active)
CCCCCCNC(=O)Oc1ccc(/C(=C(/CC)Cc2ccccc2)c2ccc(OCCCN(C)C)cc2)cc1; 87.7% (inactive)
CCN(CC)CC(=O)Nc1ccc2ncnc(Nc3ccc(Oc4cccc(F)c4)c(Cl)c3)c2c1; 58.4% (inactive)
COc1ccc(-c2c[nH]c(C(=O)O)c2-c2cc(OC)c(OC)c(OC)c2)cc1; 19.2% (inactive)
CN1C(=O)/C(=C/c2ccc(C(=O)Nc3ncc(Cc4ccccc4Cl)s3)cc2)SC1=S; 62.4% (inactive)

The molecule `Cc1ccc(C(=O)Nc2ccc(CN3CCN(C)CC3)c(C(F)(F)F)c2)cc1C#Cc1cnc(N)cc1C#N` , when measured on SK-MEL-5 melanoma, yielded growth of -86.5% (active)

The molecule `COc1ccc(Oc2nc(Nc3ccc(N4CCOCC4)cc3)ncc2NC(=O)c2cc(OC)cc(OC)c2)cc1` , when measured on SK-MEL-5 melanoma, yielded growth of 77.2% (inactive)

The molecule `C#Cc1cc(C(=O)Nc2ccc(CN3CCN(C)CC3)c(C(F)(F)F)c2)ccc1C` , when measured on SK-MEL-5 melanoma, yielded growth of 15.6% (inactive)

###

system: BT-549 breast; assay: NCI-60 one-dose screen, 48 h (100 = growth as untreated, 0 = no growth, -100 = all killed); details: 10 µM
About 83,000 compounds went through this panel and 20% of them were active in at least one assay; those are over-represented in the sample as a whole. Activity calls are given as the source filed them. Rule for the calls: active = growth percent below 10; inactive = the rest.
Entries annotated with measured growth

Below are worked cases with known answers.
CC(=O)/C=C/c1ccc(N(C)Cc2ccc(C(C)(C)C)cc2)cc1; 101% (inactive)
CC(=O)/C=C/c1ccc(OCc2ccc(C(C)(C)C)cc2)cc1; 103% (inactive)
CC(=O)/C=C/c1ccc(N(CCO)Cc2ccc(C(C)(C)C)cc2)cc1; 79% (inactive)

Reported growth of `COc1ccc(C(=O)/C=C/c2ccc(OCc3cccc(C(F)(F)F)c3)c(OC)c2)cc1OC` : 95.2% (inactive)

Reported growth of `CCN(Cc1ccccc1)c1ccc(/C=C2\COc3ccccc3C2=O)cc1` : 95.6% (inactive)

###

Entries annotated with measured growth
tested on: SW-620 colon; test: NCI-60 one-dose screen, 48 h (100 = growth as untreated, 0 = no growth, -100 = all killed); conditions: 10 µM unless noted
About 83,000 compounds went through this panel and 20% of them were active in at least one assay; those are over-represented in the sample as a whole. Active and inactive are the calls of the source. The calls were made as follows: active = growth percent below 10; inactive = the rest.

Reported growth of `Cc1ccc(-c2nc3nc(-c4ccc(F)cc4)nc(N4CCCNCC4)c3o2)cc1` : -84.6% (active)

Reported growth of `N#Cc1cc(-c2ccnc(Nc3ccc(NC(=O)CCl)cc3)n2)ccc1N1CCCC1` : -36.9% (active)

Reported growth of CCCN1C(=O)/C(=c2\sc3n(c2=O)C2C(NN=3)N(CC)C(=O)N2CC)c2ccccc21 (stereo not given) : 24.9% (inactive)

Reported growth of N#CC1=C(N)Oc2c(sc3c(Br)cccc23)C1c1ccccn1 (stereo not given) : 34.8% (inactive)

Reported growth of `CN1CCN(Cc2ccc(NC(=O)c3cccc(C#Cc4c(N)ncc5ccc(F)cc45)c3)cc2C(F)(F)F)CC1` : -91.6% (active)
